src = ChEMBL document CHEMBL5724914

# experiment_notes: The drug is tested on Z-028 corresponding to mouse gut metagenome with ENA study accession number: PRJEB37062 and ENA sample accession number: ERS12561827 for biotransformation under anaerobic condition. The drug concentrations were measured over 9 timepoints collected between 0 and 24 hours of incubation by liquid-chromatography-coupled mass spectrometry (LC–MS); also: call rule not given here
# condition_summary: 2 µM
outcome_measure: Bacterial Biotransformation

Here are 5 compounds together with their reported answers.
# compound, Bacterial Biotransformation
records = [
    ("CC(C)NCC(O)c1ccc(NS(C)(=O)=O)cc1 (configuration not stated) [SOTALOL]", "Compound NOT metabolized"),
    ("Cc1nc2n(c(=O)c1CCN1CCC(c3noc4cc(F)ccc34)CC1)CCCC2 [RISPERIDONE]", "Compound metabolized"),
    ("CN1C(=O)CC(C)(c2ccccc2)C1=O (configuration not stated) [METHSUXIMIDE]", "Compound NOT metabolized"),
    ("COc1ccccc1OCC(O)CN1CCN(CC(=O)Nc2c(C)cccc2C)CC1 (configuration not stated) [RANOLAZINE]", "Compound NOT metabolized"),
    ("CCN(CC)CCOC(=O)C(Cc1cccc2ccccc12)CC1CCCO1.O=C(O)C(=O)O (configuration not stated) [NAFRONYL OXALATE]", "Compound metabolized"),
]

Could you share which Bacterial Biotransformation value was measured for O=C(Nc1ccccc1)OCC(CN1CCCCC1)OC(=O)Nc1ccccc1 (configuration not stated) [DIPERODON] ?
Compound NOT metabolized

Could you share which Bacterial Biotransformation value was measured for `CCCCC(=O)N(Cc1ccc(-c2ccccc2-c2nnn[nH]2)cc1)[C@H](C(=O)O)C(C)C` ?
Compound NOT metabolized

Could you share which Bacterial Biotransformation value was measured for OC(Cn1cncn1)(Cn1cncn1)c1ccc(F)cc1F [FLUCONAZOLE] ?
Compound NOT metabolized

Could you share which Bacterial Biotransformation value was measured for O=C(O)CCc1nc(-c2ccccc2)c(-c2ccccc2)o1 [OXAPROZIN] ?
Compound NOT metabolized

---

# condition_summary: human gut metagenome, 24 h, 2 µM
outcome_measure: Bacterial Biotransformation

Here are 5 molecules together with their reported answers.
# molecule, value_observed
measured = [
    ("CC(C)c1c(C(=O)Nc2ccccc2)c(-c2ccccc2)c(-c2ccc(F)cc2)n1CC[C@@H](O)C[C@@H](O)CC(=O)O [ATORVASTATIN]", "Compound metabolized"),
    ("COc1ccccc1OCC(O)COC(N)=O (configuration not stated) [METHOCARBAMOL]", "Compound NOT metabolized"),
    ("CCCCc1nc(Cl)c(CO)n1Cc1ccc(-c2ccccc2-c2nn[nH]n2)cc1 [LOSARTAN]", "Compound metabolized"),
    ("COc1c(C)c2c(c(O)c1C/C=C(\\C)CCC(=O)OCCN1CCOCC1)C(=O)OC2 [MYCOPHENOLATE MOFETIL]", "Compound metabolized"),
    ("C=CCc1ccccc1OCC(O)CNC(C)C (configuration not stated) [ALPRENOLOL]", "Compound NOT metabolized"),
]

Could you share which Bacterial Biotransformation value was measured for CS(=O)(=O)O.OC(CCN1CCCCC1)(c1ccccc1)c1ccccc1 [PRIDINOL METHANESULFONATE] ?
Compound metabolized

Could you share which Bacterial Biotransformation value was measured for CCOC(=O)[C@H](CCc1ccccc1)N[C@H]1CCc2ccccc2N(CC(=O)O)C1=O [BENAZEPRIL] ?
Compound metabolized

Could you share which Bacterial Biotransformation value was measured for COC(=O)Nc1nc2ccc(C(=O)c3ccccc3)cc2[nH]1 [MEBENDAZOLE] ?
Compound metabolized

Could you share which Bacterial Biotransformation value was measured for CNC(=C[N+](=O)[O-])NCCSCc1ccc(CN(C)C)o1 [RANITIDINE] ?
Compound metabolized

Could you share which Bacterial Biotransformation value was measured for O=C(Nc1ccccc1)OCC(CN1CCCCC1)OC(=O)Nc1ccccc1 (configuration not stated) [DIPERODON] ?
Compound NOT metabolized

Could you share which Bacterial Biotransformation value was measured for C[C@@H]1C[C@H]2[C@@H]3CCC4=CC(=O)C=C[C@]4(C)[C@@]3(F)[C@@H](O)C[C@]2(C)[C@@]1(O)C(=O)CO [DEXAMETHASONE] ?
Compound NOT metabolized

Could you share which Bacterial Biotransformation value was measured for OC(CCN1CCCCC1)(c1ccccc1)C1CCCCC1 (configuration not stated) [TRIHEXYPHENIDYL] ?
Compound NOT metabolized
